The following molecules are listed with their measured pKi values.
target: Bcl-2-like protein 1 (Homo sapiens); test: Inhibition of 5-FAM-tagged Bid-BH3 peptide binding to Bcl-XL (unknown origin) by fluorescence polarization assay; settings: read-out: Ki
Sequence (Q07817 whole entry): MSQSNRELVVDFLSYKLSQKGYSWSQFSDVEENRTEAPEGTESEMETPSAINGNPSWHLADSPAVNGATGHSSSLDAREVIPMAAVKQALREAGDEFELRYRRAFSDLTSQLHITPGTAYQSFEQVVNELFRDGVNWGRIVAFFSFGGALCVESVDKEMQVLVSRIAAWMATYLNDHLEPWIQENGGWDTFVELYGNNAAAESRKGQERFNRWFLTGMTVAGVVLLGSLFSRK
// pKi is dimensionless: -log10 of concentration (M)

Smiles Representation | Result Number
Cc1ccc(S(=O)(=O)NC(=O)[C@H](Cc2ccccc2)N2C(=O)/C(=C/c3ccc(-c4ccccc4)cc3)SC2=S)cc1 | 5.89

Here is another molecule to look at.
The recorded pKi for O=C(O)CSc1cc(NS(=O)(=O)c2ccc(Br)cc2)c2ccccc2c1O is 5.11

* * *

target: Apoptosis regulator Bcl-2 (Homo sapiens, UniProt P10415); test: Inhibition of 5-FAM-tagged Bid-BH3 peptide binding to Bcl2 (unknown origin) by fluorescence polarization assay; conditions: read-out: Ki
Sequence (P10415 whole entry): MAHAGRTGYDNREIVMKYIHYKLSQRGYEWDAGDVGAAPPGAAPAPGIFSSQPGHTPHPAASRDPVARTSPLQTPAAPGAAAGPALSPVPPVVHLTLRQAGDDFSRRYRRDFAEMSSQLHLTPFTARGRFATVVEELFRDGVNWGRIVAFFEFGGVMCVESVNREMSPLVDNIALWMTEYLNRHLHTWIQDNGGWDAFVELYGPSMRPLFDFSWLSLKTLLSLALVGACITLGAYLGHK
Values of Ki strictly less than 500 nM map to fulfilled, and values of at least 500 nM map to not fulfilled.

Smiles Representation | Label
COc1ccc2c(c1)c(CC(=O)N[C@@H](Cc1ccc(OC(C)C)cc1)C(=O)NS(=O)(=O)c1ccc(Cl)c([N+](=O)[O-])c1)c(C)n2C(=O)c1ccc(Cl)cc1 | not fulfilled
COc1ccc2c(c1)c(CC(=O)N[C@@H](Cc1c[nH]c3ccccc13)C(=O)NS(=O)(=O)c1ccc(Cl)c([N+](=O)[O-])c1)c(C)n2C(=O)c1ccc(Cl)cc1 | not fulfilled
COc1ccc2c(c1)c(CC(=O)N[C@@H](Cc1ccc(OCc3ccccc3C#N)cc1)C(=O)NS(=O)(=O)c1ccc(Cl)c([N+](=O)[O-])c1)c(C)n2C(=O)c1ccc(Cl)cc1 | not fulfilled
COc1ccc2c(c1)c(CC(=O)N[C@@H](Cc1ccc(OCc3ccccc3)cc1)C(=O)NS(=O)(=O)c1ccc(Cl)c([N+](=O)[O-])c1)c(C)n2C(=O)c1ccc(Cl)cc1 | not fulfilled
COc1ccc2c(c1)c(CC(=O)N[C@@H](Cc1ccc(OCc3cccc(C)c3)cc1)C(=O)NS(=O)(=O)c1ccc(Cl)c([N+](=O)[O-])c1)c(C)n2C(=O)c1ccc(Cl)cc1 | fulfilled

Input line: is_below(Ki, 500 nM) for COc1ccc2c(c1)c(CC(=O)N[C@@H](Cc1ccccc1)C(=O)NS(=O)(=O)c1ccc(Br)cc1)c(C)n2C(=O)c1ccc(Cl)cc1 ?
Output line: not fulfilled

Input line: is_below(Ki, 500 nM) for COc1ccc(C[C@H](NC(=O)Cc2c(C)n(C(=O)c3ccc(Cl)cc3)c3ccc(OC)cc23)C(=O)NS(=O)(=O)c2ccc(Br)cc2)cc1 ?
Output line: not fulfilled

Input line: is_below(Ki, 500 nM) for COc1ccc2c(c1)c(CC(=O)N[C@@H](Cc1ccc(OCc3cccc(C#N)c3)cc1)C(=O)NS(=O)(=O)c1ccc(Cl)c([N+](=O)[O-])c1)c(C)n2C(=O)c1ccc(Cl)cc1 ?
Output line: fulfilled

Input line: is_below(Ki, 500 nM) for COc1ccc2c(c1)c(CC(=O)N[C@@H](Cc1ccc(OCc3ccc(Br)cc3)cc1)C(=O)NS(=O)(=O)c1ccc(Cl)c([N+](=O)[O-])c1)c(C)n2C(=O)c1ccc(Cl)cc1 ?
Output line: fulfilled

Input line: is_below(Ki, 500 nM) for COc1ccc2c(c1)c(CC(=O)N[C@@H](CC(C)C)C(=O)NS(=O)(=O)c1ccc(Cl)c([N+](=O)[O-])c1)c(C)n2C(=O)c1ccc(Cl)cc1 ?
Output line: not fulfilled

Input line: is_below(Ki, 500 nM) for Cc1ccc(S(=O)(=O)NC(=O)[C@H](Cc2ccccc2)N2C(=O)/C(=C/c3ccc(-c4ccccc4)cc3)SC2=S)cc1 ?
Output line: not fulfilled

Input line: is_below(Ki, 500 nM) for COc1ccc2c(c1)c(CC(=O)N[C@@H](Cc1ccccc1)C(=O)NS(=O)(=O)c1ccc(Cl)c([N+](=O)[O-])c1)c(C)n2C(=O)c1ccc(Cl)cc1 ?
Output line: not fulfilled

Input line: is_below(Ki, 500 nM) for COc1ccc2c(c1)c(CC(=O)N[C@@H](Cc1ccc(OCc3ccc(C)cc3)cc1)C(=O)NS(=O)(=O)c1ccc(Cl)c([N+](=O)[O-])c1)c(C)n2C(=O)c1ccc(Cl)cc1 ?
Output line: not fulfilled

Input line: is_below(Ki, 500 nM) for COc1cccc(COc2ccc(C[C@H](NC(=O)Cc3c(C)n(C(=O)c4ccc(Cl)cc4)c4ccc(OC)cc34)C(=O)NS(=O)(=O)c3ccc(Cl)c([N+](=O)[O-])c3)cc2)c1 ?
Output line: fulfilled

Input line: is_below(Ki, 500 nM) for COc1ccc2c(c1)c(CC(=O)N[C@@H](CCSC)C(=O)NS(=O)(=O)c1ccc(Cl)c([N+](=O)[O-])c1)c(C)n2C(=O)c1ccc(Cl)cc1 ?
Output line: not fulfilled

Input line: is_below(Ki, 500 nM) for COc1ccc(C[C@H](NC(=O)Cc2c(C)n(C(=O)c3ccc(Cl)cc3)c3ccc(OC)cc23)C(=O)NS(=O)(=O)c2ccc(Cl)c([N+](=O)[O-])c2)cc1 ?
Output line: not fulfilled
